Give IC50 for every item shown.
# System: CDK2/cyclin A2 (Homo sapiens)
# Construct: purchased Carna Biosciences, Inc. QS S Assist CDK2/Cyclin A2_FP Kit
# Protocol description: Human CDK2/cyclin A2 inhibitory activity (QS S Assist CDK2/Cyclin A2_FP Kit, IMAP fluorescence polarization)
# Format: biochemical
# Measurement parameters: 50% inhibitory concentration against CDK2/cyclin A2, given as class symbol

Field request: IC50 | item: CCCCNc1nc([C@@H](C)OC)cc2cnc(Nc3ccc(CN4CCN(CCO)CC4)cn3)nc12 [Compound 853]
≥ 100 nM

State the recorded IC50 for this entry: CCCNc1nc(C2(C)COC2)cc2cnc(Nc3ccc(N4CCNCC4)cn3)nc12 [Compound 1002]
≥ 100 nM

Please report the recorded IC50 for C[C@@H](O)c1cc2cnc(Nc3ccc(N4CCNCC4=O)cn3)nc2c(NC2CC(F)(F)C2)n1 [Compound 1211] .
≥ 100 nM

Any idea what IC50 was measured for CC(C)Nc1nc([C@@H](C)O)cc2cnc(Nc3ccc(C(=O)N4CCN(C)CC4)cn3)nc12 [Compound 1160] ?
10 to 100 nM

Bench note: what IC50 did C[C@@H](O)c1cc2cnc(Nc3ccc(CN4CCC(CO)CC4)cn3)nc2c(NCC2CCOCC2)n1 [Compound 1152] show?
≥ 100 nM

// lookup IC50 for CC1(c2cc3cnc(Nc4ccc5c(n4)CCN(C(=O)CO)C5)nc3c(N[C@H]3CCCOC3)n2)COC1 [Compound 1115]
≥ 100 nM

Quick one: IC50 for CC(C)CNc1nc(C(F)F)cc2cnc(Nc3ccc(CN4CCC(C(=O)O)CC4)cn3)nc12 [Compound 1098] ?
≥ 100 nM
